Reference source: PubChem BioAssay AID504803

Biological target: Serine protease HTRA1 (Homo sapiens) (UniProt Q92743)
Sequence (Q92743 whole entry, looked up): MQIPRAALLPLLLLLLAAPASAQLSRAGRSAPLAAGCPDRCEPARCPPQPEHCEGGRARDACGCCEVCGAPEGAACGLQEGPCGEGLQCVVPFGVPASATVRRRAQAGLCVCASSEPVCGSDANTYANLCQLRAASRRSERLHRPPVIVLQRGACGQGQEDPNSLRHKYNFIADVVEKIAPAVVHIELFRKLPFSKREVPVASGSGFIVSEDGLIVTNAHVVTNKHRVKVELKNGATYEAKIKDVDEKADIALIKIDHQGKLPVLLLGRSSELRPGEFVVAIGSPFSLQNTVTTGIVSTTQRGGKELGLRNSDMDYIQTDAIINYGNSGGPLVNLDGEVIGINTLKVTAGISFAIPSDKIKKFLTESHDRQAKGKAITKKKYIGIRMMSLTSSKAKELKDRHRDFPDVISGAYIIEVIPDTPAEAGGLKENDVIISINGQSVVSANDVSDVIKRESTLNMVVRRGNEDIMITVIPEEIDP
Assay: inhibition of human HTRA1 peptidase – biochemical, fluorescence polarization, HTS, primary screen (AID 504803);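 note: 0% = enzyme with DMSO and 100% = wells lacking enzyme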
Details: recombinant HTRA1, FP-rhodamine activity-based probe, at 5.96 µM, active compounds read high
Screen size: about 340,000 compounds; about 1,700 (0.5%) were called active. The sample holds actives, similar compounds and a random draw of the others, so the mix is not that of the screen.
assayEndpoint: inhibition

inputSmiles	assayValue
COc1cc(C)cc(CN2CCC(Cc3ccccc3)CC2)c1O	4.82% (inactive)
Oc1c(CN2CCCC2)cc(COCc2ccccc2)c2cccnc12	49.2% (active)
c1ccc(Cn2nnc3c(NCC4CC4)ncnc32)cc1	-4.95% (inactive)
